- assayedTarget: Cytochrome P450 3A4 (Homo sapiens)
- testSummary: Cytochrome P450 Family 3 Subfamily A Member 4 (CYP3A4) small molecule antagonists: luciferase reporter qHTS assay (AID 1671201); note: nearly all actives have a fitted effect of over 50% in size; note: potency is the fitted concentration of half-maximal effect
- statedConditions: P450-Glo CYP3A4 enzyme, luciferin luminescence, 1 h; series mostly up to 115 µM
Records with an inconclusive call do not appear. Activity calls are given as the source filed them. Calls come from the whole dose curve; as a rule, active = well fitted inhibition curve with a large enough effect in the repeat runs; inconclusive = weak or mixed curves; inactive = no such curve, though single readings can be large or run the other way.
measuredQuantity: Potency

CCn1c2ccccc2c2ccccc21 ... inactive
C=C1C(CCl)(CCl)C2(Cl)C(Cl)C(Cl)C1(Cl)C2(Cl)Cl (configuration not stated) ... 0.991 µM (active)
Cn1ccnc1 ... inactive
C=CC(=O)O[C@H]1C[C@@H]2CC[C@@]1(C)C2(C)C ... inactive

Give Potency for each listed item.
1. CCCCCN=C(N)N/N=C/c1c[nH]c2ccc(OC)cc12
2. CN[C@H]1CC[C@@H](c2ccc(Cl)c(Cl)c2)c2ccc(S(N)(=O)=O)cc21
3. O=C(c1ccccc1)c1ccc(Cl)cc1

Found:
["inactive", "28.3 µM (active)", "inactive"]

###

- assayedTarget: Estrogen receptor (Homo sapiens)
- testSummary: qHTS assay to identify small molecule agonists of the estrogen receptor alpha (ER-alpha) signaling pathway (AID 743075);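 note: HEK293 GripTite cells with ER-alpha and UAS-driven beta-lactamase reporter; % is set by controls: 0 for no effect and ±100 for the full control effect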
- statedConditions: HEK293 ER-alpha-UAS-bla, beta-lactamase FRET ratio, 18 h; series mostly up to 70.1 µM
Records with an inconclusive call do not appear. Active and inactive are the calls of the source. The call rests on the fitted dose curve.
Field 'call' accepts YES for active, NO for inactive

Look over these answered cases.
CO/N=C(\C(=O)N[C@@H]1C(=O)N2C(C(=O)O)=C(CSc3cnns3)CS[C@H]12)c1csc(N)n1 ... NO
CC1CCCC(C)N1NC(=O)c1ccc(Cl)c(S(N)(=O)=O)c1 (configuration not stated) ... NO

Lookup: In this assay, the call recorded for Cc1cnc(C(=O)O)c[n+]1[O-] was what?
Found: NO

Lookup: In this assay, the call recorded for OCC1(CO)COC(C(Cl)(Cl)Cl)OC1 was what?
Found: NO

Lookup: In this assay, the call recorded for COC(=O)C(CN)c1c[nH]c2ccc(OC)cc12 (configuration not stated) was what?
Found: NO

Lookup: In this assay, the call recorded for Cc1c(O)c(=O)ccn1C was what?
Found: NO

Lookup: In this assay, the call recorded for O=C(O)CCCC/C=C(\c1ccccc1)c1cccnc1 was what?
Found: NO

Lookup: In this assay, the call recorded for CC(C)COC(=O)OCN1C(=O)CN(CCN2CC(=O)N(COC(=O)OCC(C)C)C(=O)C2)CC1=O was what?
Found: NO

###

- testSummary: A CellTox Green Cytotoxicity Assay to monitor cytotoxicity in HepG2 cells - 24 hour (AID 1224878); note: nearly all actives have a fitted effect of over 45% in size; note: potency is the fitted concentration of half-maximal effect; for Cytotoxicity: % is set by controls: 0 for no effect and ±100 for the full control effect
- statedConditions: CellTox Green fluorescence; series mostly up to 76.8 µM
Results filed as inconclusive are left out. Activity calls are given as the source filed them. Calls come from the whole dose curve; as a rule, active = well fitted activation curve with a large enough effect in the repeat runs; inconclusive = weak or mixed curves; inactive = flat fitted curve, though single readings scatter.
measuredQuantity: Potency

CC(C)c1ccc2sc3ccccc3c(=O)c2c1 ... inactive
Oc1ccc(C2(c3ccc(O)c(C4CCCCC4)c3)CCCCC2)cc1C1CCCCC1 ... 34.7 µM (active)
CC1=CC[C@@H](C(C)(C)O)CC1 ... inactive
Cn1c(=O)[nH]c2ncn(C)c2c1=O ... inactive
COC(=O)c1ccc([N+](=O)[O-])cc1 ... inactive

Give Potency for each listed item.
1. NCc1cccc(C2CCN(C(=O)c3ccc(C#Cc4ccccc4F)o3)CC2)c1
2. COc1cc(/C=C/C(=O)CC(=O)/C=C/c2ccc(O)c(OC)c2)ccc1O

Found:
38.9 µM (active)
49.3 µM (active)

Give Potency for each listed item.
1. Nc1cc([N+](=O)[O-])ccc1Cl
2. CC(C)(c1ccc(Oc2ccc(N)cc2)cc1)c1ccc(Oc2ccc(N)cc2)cc1
3. CC(O)(c1ccc(Cl)cc1)c1ccc(Cl)cc1
4. Oc1cccc2c(O)cccc12
5. CO[Si](OC)(c1ccccc1)c1ccccc1

Found:
1. inactive
2. inactive
3. 49 µM (active)
4. inactive
5. inactive

###

- testSummary: qHTS assay to identify small molecule antagonists of the estrogen receptor alpha (ER-alpha) signaling pathway using the BG1 cell line - cell viability counter screen (AID 743081);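 note: compound given together with 17beta-estradiol as the ER stimulus; nearly all actives have a fitted effect of over 45% in size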; note: potency is the fitted concentration of half-maximal effect
- statedConditions: BG1Luc4E2 viability, CellTiter-Fluor, 22 h; series mostly up to 70.3 µM
Results filed as inconclusive are left out. The source made the active and inactive calls. Calls come from the whole dose curve; as a rule, active = well fitted cell-killing curve with a large enough effect in the repeat runs; inconclusive = weak or mixed curves, or effect the other way; inactive = flat fitted curve, though single readings scatter.
measuredQuantity: Potency

Please review the entries below; each comes with its answer.
CC(=O)Nc1ccc(OC(C)=O)cc1 ... inactive
N#Cc1nc(Cl)c(Cl)c(Cl)c1Cl ... inactive
CC1CCCCN1CCCOC(=O)c1ccccc1 (stereo not given) ... inactive
C[C@@H]1O[C@@H](OC[C@H]2O[C@@H](Oc3c(-c4ccc(OCCO)c(OCCO)c4)oc4cc(OCCO)cc(O)c4c3=O)[C@H](O)[C@@H](O)[C@@H]2O)[C@H](O)[C@H](O)[C@H]1O ... inactive
N[C@H](C(=O)O)[C@@H]1CC(Cl)=NO1 ... inactive
CO/N=C(\C(=O)N[C@@H]1C(=O)N2C(C(=O)O)=C(COC(C)=O)CS[C@H]12)c1csc(N)n1 (stereo in doubt) ... inactive

Give Potency for each listed item.
1. COc1ccc(/C=C/C(=O)O)cc1
2. O=C(O)c1cc2cc(Cc3cccnc3)ccc2o1
3. C[C@]12O[C@H](C[C@]1(O)CO)n1c3ccccc3c3c4c(c5c6ccccc6n2c5c31)CNC4=O
4. CCCC(=O)c1cc(O)c(O)cc1O

Found:
1. inactive
2. inactive
3. 21.1 µM (active)
4. 61.1 µM (active)

###

- testSummary: qHTS assay to identify small molecule antagonists of the estrogen related receptor (ERR) signaling pathway from Tox21 library - cell viability counter screen (AID 1224834); note: nearly all actives have a fitted effect of over 30% in size; note: potency is the fitted concentration of half-maximal effect
- statedConditions: ERR reporter cells viability, CellTiter-Fluor, 17.5 h; series mostly up to 92.4 µM
Results filed as inconclusive are left out. The source made the active and inactive calls. The call rests on the fitted dose curve; in most records, active means well fitted cell-killing curve with a large enough effect in the repeat runs; inconclusive means weak or mixed curves; inactive means flat fitted curve, though single readings scatter.
measuredQuantity: Potency

Please review the entries below; each comes with its answer.
CCOC(=O)[C@H](C)O ... inactive
CCc1c(C)cc(N)c(CC)c1N ... inactive
C1=CCCC1 ... inactive
COc1cc(OC)nc(NC(=O)NS(=O)(=O)Nc2ccccc2C(=O)N(C)C)n1 ... inactive

Give Potency for each listed item.
1. CN(C[C@@H](CC[N+]12CCC(C3CCCCC3)(CC1)CC2)c1ccc(Cl)c(Cl)c1)C(=O)c1cc(C(F)(F)F)cc(C(F)(F)F)c1
2. CC/C=C(\C)C=O
3. CCCC(=O)c1cc(O)c(O)cc1O
4. O=C1CCCCCCCCCCCCCC1
5. O=c1cc[nH]cc1
6. O=[N+]([O-])c1ccc(O)c2ncccc12
7. Oc1ccc(C2(c3ccc(O)c(C4CCCCC4)c3)CCCCC2)cc1C1CCCCC1
8. CN(C/C=C/c1ccccc1)Cc1cccc2ccccc12

Found:
1: 48.6 µM (active); 2: inactive; 3: 43.3 µM (active); 4: inactive; 5: inactive; 6: 11.9 µM (active); 7: 61.1 µM (active); 8: inactive

Give Potency for each listed item.
1. Cn1ccnc1
2. CCC1(C)C(=O)N(Cl)C(=O)N1Cl (centres undefined)
3. Cc1cc(Br)ccc1NC(=O)CCl
4. c1ccc2cc3c4ccccc4c4ccccc4c3cc2c1
5. CCCCCCCCCCCC(=O)Cl
6. CCC(O)CO (centres undefined)
7. CC(C)(C)C1=CC(=O)C(C(C)(C)C)=CC1=O
8. COc1cc(/C=C/C(=O)CC(=O)/C=C/c2ccc(O)c(OC)c2)ccc1O

Found:
inactive
inactive
19.3 µM (active)
inactive
inactive
inactive
inactive
21.8 µM (active)

Give Potency for each listed item.
1. c1ccc(C[P+](c2ccccc2)(c2ccccc2)c2ccccc2)cc1
2. CCCCCCCCc1ccc(Nc2ccc(CCCCCCCC)cc2)cc1

Found:
1. 21.7 µM (active)
2. inactive

Give Potency for each listed item.
1. N#CCCOCCC#N
2. CCOC(=O)OC(=O)OCC

Found:
1. inactive
2. inactive

###

- testSummary: qHTS assay to identify small molecule antagonists of the estrogen related receptor (ERR) signaling pathway (AID 1224819; note: nearly all actives have a fitted effect of over 50% in size)
- statedConditions: ERR reporter cell line, luciferase inhibition; series mostly up to 46.1 µM
Results filed as inconclusive are left out. Active and inactive are the calls of the source. The call rests on the fitted dose curve; in most records, active means well fitted inhibition curve with a large enough effect in the repeat runs; inconclusive means weak or mixed curves; inactive means no such curve, though single readings can be large or run the other way.
Field 'call' accepts Yes = active, No = inactive

N[C@H](C(=O)O)[C@H]1C[C@@H]1C(=O)O ... No
CCCC[C@@]1(C2CCCC2)Cc2cc(OCC(=O)O)c(Cl)c(Cl)c2C1=O ... Yes
O=C(O)CCCC[C@@H]1CCSS1 ... No

Lookup: In this assay, the call recorded for COc1cc2c(CCNC(C)=O)c[nH]c2cc1O was what?
Found: No

Lookup: In this assay, the call recorded for CCCN(CC1CC1)c1nc(C)nc(Nc2c(Cl)cc(Cl)cc2Cl)c1Cl was what?
Found: No

###

- assayedTarget: Nuclear receptor subfamily 1 group I member 2 (Rattus norvegicus)
- testSummary: Rat pregnane X receptor (rPXR) activation by small molecules, qHTS assay (AID 1346983); note: % is set by controls: 0 for no effect and ±100 for the full control effect; nearly all actives have a fitted effect of over 20% in size
- statedConditions: rPXR luciferase reporter cells, One-Glo luminescence, 24 h; active compounds read high
- Source text: National Center for Advancing Translational Sciences [NCATS] NIH Chemical Genomics Center [NCGC] U.S. Environmental Protection Agency [EPA] National Institutes of Environmental Health Sciences [NIEHS] National Toxicology Program [NTP] Assay overview: The Pregnane X receptor (PXR), a ligand activated nuclear receptor plays a critical role in the regulation of genes involved in drug metabolism and transporters. […]
Inconclusive results are not listed.
measuredQuantity: max activation (%)
Give bare numbers, in %.

O=[N+]([O-])c1ccc(O)c2ncccc12 ... -6.55
COC1=C(OC)C(=O)C(C/C=C(\C)CC/C=C(\C)CC/C=C(\C)CC/C=C(\C)CC/C=C(\C)CC/C=C(\C)CC/C=C(\C)CC/C=C(\C)CC/C=C(\C)CCC=C(C)C)=C(C)C1=O ... -2.14
O=C1C2CC3CC1CC(O)(C3)C2 ... -3.68

Give max activation for each listed item.
1. COc1cc(NS(C)(=O)=O)ccc1Nc1c2ccccc2nc2ccccc12
2. O=C(O)/C=C/C(O)c1ccc(Cl)cc1 (stereo not given)

Found:
1: -19; 2: -1.46
